// provenance: PubChem BioAssay AID493056

target: Thyrotropin-releasing hormone receptor (Homo sapiens) (UniProt P34981); test: qHTS for Small Molecule Agonists and Allosteric Enhancers of Human TRH Receptor: Primary Screen for Enhancers; details: TRHR cells, fluo-8 calcium fluorescence, EC20 TRH enhancement; at 2 µM; stronger effect = higher value; further: 0% is about no effect
Sequence (P34981 whole entry, looked up): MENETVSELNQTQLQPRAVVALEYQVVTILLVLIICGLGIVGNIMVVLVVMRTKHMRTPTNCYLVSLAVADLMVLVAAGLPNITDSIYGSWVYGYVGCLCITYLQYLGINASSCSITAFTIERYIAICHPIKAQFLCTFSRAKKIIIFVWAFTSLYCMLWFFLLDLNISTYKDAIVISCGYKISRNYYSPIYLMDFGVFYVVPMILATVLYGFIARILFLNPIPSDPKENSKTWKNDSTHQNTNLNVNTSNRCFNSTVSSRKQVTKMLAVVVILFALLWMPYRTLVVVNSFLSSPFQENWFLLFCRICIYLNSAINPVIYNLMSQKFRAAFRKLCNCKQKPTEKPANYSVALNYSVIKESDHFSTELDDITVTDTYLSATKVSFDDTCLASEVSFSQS
The whole screen tested about 360,000 compounds, of which about 2,400 (0.67%) were called active. The sample as a whole holds a higher share of actives than the screen did. Peptide text beside a SMILES is read from it. * marks the point of attachment. OPac = O=C(CO*)c1ccccc1; Bz = O=C(c1ccccc1)*
Property Measured: enhancement

# map each molecule to its enhancement
1. CCN1CCN(C(=O)C2(NC(=O)Nc3cccc(F)c3)CCCCC2)CC1
2. CCn1nc(C)c(CNC(=O)C2CCC(=O)N(Cc3cccc(F)c3)C2)c1C (centres undefined)
3. Cc1ccn2c(Nc3ccc4c(c3)OCCO4)c(-c3ccc(C)s3)nc2c1
4. Cc1ccc(CN(C(=O)COc2ccc(Cl)cc2C)C2CCS(=O)(=O)C2)o1 (centres undefined)
5. CCOc1ccc(CNC(=O)c2cc(=O)[nH]c3ccc(S(=O)(=O)N4CCCCC4)cc23)cc1

["1.28% (inactive)", "31.7% (active)", "-3.6% (inactive)", "1.47% (inactive)", "5.17% (inactive)"]

# map each molecule to its enhancement
1. Cc1n[nH]c(C)c1S(=O)(=O)N1CCCC(C(=O)NCC2COc3ccccc3O2)C1 (centres undefined)
2. COC(=O)c1ccc(CNC(=O)C2CCC(=O)N(Cc3cccc(F)c3)C2)cc1 (centres undefined)
3. COc1ccc(Cl)cc1NC(=O)C(C)Sc1nc2c(c(=O)[nH]1)CCCC2 (centres undefined)
4. Cc1cc(C(=O)CCl)c(C)n1CC1COc2ccccc2O1 (centres undefined)
5. CCOC(=O)C1CCN(C(=O)C2(NC(=O)Nc3cccc(F)c3)CCCCC2)CC1
6. Cn1cccc1C1(C(F)(F)F)NCCNC1=O (centres undefined)

1: -5.61% (inactive); 2: -7.88% (inactive); 3: 0.18% (inactive); 4: 45.8% (active); 5: 34.3% (active); 6: 50.7% (active)

# map each molecule to its enhancement
1. Cc1ccc(-n2cnc3cc(C(=O)NCCC4=CCCCC4)ccc32)cc1Cl
2. CCOC(=O)C1CCN(C(=O)Nc2cccc(OC)c2)CC1
3. COc1cccc(N2CC(NC(=O)/C=C\c3ccccc3)CC2=O)c1 (centres undefined)
4. Cc1ccc(OC(=O)CSc2nnc(-c3cccs3)o2)cc1
5. Cc1ccc(CCNC(=O)c2ccc3c(c2)nc2n3CCC(C)C2)cc1 (centres undefined)

-5.29% (inactive)
-1.73% (inactive)
5.73% (inactive)
-4.22% (inactive)
-2.39% (inactive)

# map each molecule to its enhancement
1. Cc1cc(C)cc(NS(=O)(=O)c2ccc(-c3cc(C)no3)s2)c1
2. O=C(CNC(=O)c1ccccc1)NCC(=O)OCC(=O)c1ccccc1 (Bz-Gly-Gly-OPac)
3. N#Cc1nc(Nc2cccc(Cl)c2)nc(NC2CCCC2)n1
4. COC(=O)c1cc(NC(=O)CN2CCN(C(C)=O)CC2)cc(C(=O)OC)c1
5. O=C(CNC(=O)Cc1ccccc1)NCC(=O)OCC(=O)c1ccccc1Cl
6. COC(=O)c1ccccc1NC(=O)c1ccc2c(=O)n3c(nc2c1)CCCCC3
7. CN(CC(=O)Nc1ccccc1F)S(=O)(=O)c1ccc2c(c1)c(=O)n(C)c(=O)n2C

-5.49% (inactive)
48.2% (active)
-7.23% (inactive)
6.58% (inactive)
-4.65% (inactive)
1.88% (inactive)
-1.52% (inactive)
